measured-on: κ-opioid receptor (Homo sapiens (Human), UniProt P41145)
protocol-description: κ-opioid receptor [35S]GTPγS functional assay, U-2 OS cells
Assay type: biochemical
measured-metric: EC50 (nM)
Express your answer in nM, writing the number without its unit.

{"structure-notation": "CN1CC[C@@]2(C)c3cc(O)ccc3C[C@@H]1[C@@H]2N(C)CC(=O)Nc1nc2ccc(F)cc2s1", "measured-metric": "EC50", "readout-units": "nM", "data-value": 10900}

Which EC50 reading was recorded for the compound CN1CC[C@@]2(C)c3cc(O)ccc3C[C@@H]1[C@H]2NCCC1(O)CCCCC1 ?
137

And what about the compound CN1CC[C@@]2(C)c3cc(O)ccc3C[C@@H]1[C@@H]2N(C)C(=O)CC(=O)Nc1ccc(F)cc1F ?
54.3

====

Each entry below carries its reported log10 of EC50.
measured-on: μ-opioid receptor (Homo sapiens (Human))
protocol-description: μ-opioid receptor [35S]GTPγS functional assay, HEK-293 or CHO cells
Format: biochemical
measurement-setup: HEK-293 or CHO cells; read-out: GTPγS μ EC50
Each number you see is log10 of EC50, and the unit inside the log is nM.

Consider the reported log10 of EC50 for these compounds:
{"compound": "CN1CC[C@@]2(C)c3cc(O)ccc3C[C@@H]1[C@@H]2N(C)C(=O)Nc1nc2ccccc2o1 [Compound 121]", "log10 of EC50": 1.92}
{"compound": "CN(CC1CCN(S(=O)(=O)C2CCCC2)CC1)C1[C@H]2Cc3ccc(O)cc3C1(C)CCN2C (stereo in doubt) [Compound 60]", "log10 of EC50": 1.08}
{"compound": "CN1CC[C@@]2(C)c3cc(O)ccc3C[C@@H]1[C@@H]2NCCOc1ccccc1 [Compound 15]", "log10 of EC50": 2.09}

Look up log10 of EC50 with μ-opioid receptor (Homo sapiens (Human)) for this compound: CN1CC[C@@]2(C)c3cc(O)ccc3C[C@@H]1[C@@H]2N(C)CC1CCN(C(=O)NC(C)(C)C)CC1 [Compound 95]
0.90

And what about the compound CN1CC[C@@]2(C)c3cc(O)ccc3C[C@@H]1[C@@H]2NCCc1ccc(S(C)(=O)=O)cc1 [Compound 10] ?
2.35

And what about the compound CN(CC1CCN(S(=O)(=O)Cc2ccccc2)CC1)C1[C@H]2Cc3ccc(O)cc3C1(C)CCN2C (stereo in doubt) [Compound 58] ?
1.12

And what about the compound CN1CC[C@@]2(C)c3cc(O)ccc3C[C@@H]1[C@@H]2N(C)CC1CCN(C(=O)C(C)(C)C)CC1 [Compound 52] ?
0.09

And what about the compound CN1CC[C@@]2(C)c3cc(O)ccc3C[C@@H]1[C@@H]2NCC1(O)CCCCC1 [Compound 14] ?
3.94

And what about the compound CN1CC[C@@]2(C)c3cc(C(N)=O)ccc3C[C@@H]1[C@H]2NCCc1ccccc1 [Compound 115] ?
2.72

And what about the compound CN1CC[C@@]2(C)c3cc(O)ccc3C[C@@H]1[C@H]2NCC1(O)CCCCC1 [Compound 13] ?
3.03

And what about the compound CN1CC[C@@]2(C)c3cc(O)ccc3C[C@@H]1[C@H]2NC(=O)Nc1nc2cc(F)ccc2s1 [Compound 122] ?
2.57

And what about the compound CN1CC[C@@]2(C)c3cc(O)ccc3C[C@@H]1[C@@H]2N(C)CC1CCN(CC(C)(C)O)CC1 [Compound 97] ?
1.35

And what about the compound CCS(=O)(=O)N1CCC(CN(C)[C@H]2[C@H]3Cc4ccc(O)cc4[C@]2(C)CCN3C)CC1 [Compound 56] ?
1.99

And what about the compound CC(C)S(=O)(=O)N1CCC(CN(C)[C@H]2[C@H]3Cc4ccc(O)cc4[C@]2(C)CCN3C)CC1 [Compound 55] ?
0.52

And what about the compound COc1ccc2c(c1)[C@]1(C)CCN(C)[C@H](C2)[C@@H]1N(C)C(=O)Nc1nc2ccccc2[nH]1 [Compound 111] ?
2.90

====

measured-on: μ-opioid receptor (Homo sapiens (Human))
protocol-description: μ-opioid receptor [35S]GTPγS functional assay, HEK-293 or CHO cells
Assay type: biochemical
measurement-setup: HEK-293 or CHO cells; bound given in uM; read-out: GTPγS μ EC50
Each entry below carries its reported EC50.

Which EC50 reading was recorded for the molecule CN1CC[C@@]2(C)c3cc(C(=O)O)ccc3C[C@@H]1C2(O)O ?
> 20 µM

And what about the molecule CN1CC[C@@]2(C)c3cc(C(=O)O)ccc3C[C@@H]1[C@@H]2NCCc1ccc(S(C)(=O)=O)cc1 ?
> 20 µM

And what about the molecule COc1ccc2c(c1)[C@]1(C)CCN(C)[C@H](C2)[C@@H]1N(C)C(=O)CN1CCNC(=O)C1 ?
> 20 µM

And what about the molecule CN1CCC2(C)c3cc(O)ccc3C[C@@H]1C2NS(=O)(=O)c1ccccc1 (stereo in doubt) ?
> 20 µM

And what about the molecule CN1CC[C@@]2(C)c3cc(O)ccc3C[C@@H]1[C@H]2N(C)C(=O)Nc1nc2cc(F)ccc2s1 ?
> 20 µM

And what about the molecule CN1CCC2(C)c3cc(O)ccc3C[C@@H]1C2NC(=O)/C=C/c1ccoc1 (stereo in doubt) ?
> 20 µM

And what about the molecule CN1CC[C@@]2(C)c3cc(O)ccc3C[C@@H]1[C@@H]2N(C)C(=O)Nc1nc2ccc(F)cc2s1 ?
> 20 µM

====

Each entry below carries its reported Ki.
measured-on: κ-opioid receptor (Homo sapiens (Human))
protocol-description: κ-opioid receptor radioligand dose-displacement binding assay ([3H]-U69,593)
measurement-setup: binding affinity, HEK-293 or CHO cells
Express your answer in nM, writing the number without its unit.

{"structure-notation": "CN1CC[C@@]2(C)c3cc(O)ccc3C[C@@H]1[C@@H]2N(C)CC1CCN(CC(C)(C)O)CC1", "data-value": 2.12}

# context switch: different compound, same Ki
Which Ki reading was recorded for the compound CN1CC[C@@]2(C)c3cc(O)ccc3C[C@@H]1[C@@H]2NCCc1ccc(S(C)(=O)=O)cc1 ?
301

====

measured-on: κ-opioid receptor (Homo sapiens (Human), UniProt P41145)
protocol-description: κ-opioid receptor radioligand dose-displacement binding assay ([3H]-U69,593)
measurement-setup: binding affinity, HEK-293 or CHO cells; bound given in uM
measured-metric: Ki

Which Ki reading was recorded for the compound CC(C)S(=O)(=O)N1CCC(CN(C)[C@H]2[C@H]3Cc4ccc(O)cc4[C@]2(C)CCN3C)CC1 [Compound 55] ?
> 20 µM

====

measured-on: μ-opioid receptor (Homo sapiens (Human), UniProt P35372)
protocol-description: μ-opioid receptor [35S]GTPγS functional assay, HEK-293 or CHO cells
Assay type: biochemical
measurement-setup: HEK-293 or CHO cells; relative to DAMGO
Each entry below carries its reported Emax.
Express your answer in %, writing the number without its unit.

{"compound": "CN1CC[C@@]2(C)c3cc(O)ccc3C[C@@H]1[C@@H]2N(C)C(=O)Nc1nc2ccccc2[nH]1 [Compound 107]", "measured-on": "μ-opioid receptor (Homo sapiens (Human), UniProt P35372)", "measured-metric": "Emax", "data-value": 30.6}

Look up Emax with μ-opioid receptor (Homo sapiens (Human), UniProt P35372) for this compound: CN(CC1CCN(S(=O)(=O)Cc2ccccc2)CC1)C1[C@H]2Cc3ccc(O)cc3C1(C)CCN2C (stereo in doubt) [Compound 58]
58

And what about the compound CN1CC[C@@]2(C)c3cc(O)ccc3C[C@@H]1[C@@H]2N(CCc1ccc(F)cc1)CC(N)=O [Compound 74] ?
83.2

And what about the compound CN1CCC2(C)c3cc(O)ccc3C[C@@H]1C2NC(=O)Cc1ccccc1 (stereo in doubt) [Compound 29] ?
1

And what about the compound CN1CC[C@@]2(C)c3cc(O)ccc3C[C@@H]1[C@@H]2NCCOc1ccccc1 [Compound 15] ?
97.7

====

Each entry below carries its reported log10(EC50).
measured-on: μ-opioid receptor (Homo sapiens (Human))
protocol-description: μ-opioid receptor [35S]GTPγS functional assay, HEK-293 or CHO cells
Assay type: biochemical
measurement-setup: HEK-293 or CHO cells; read-out: GTPγS μ EC50
Each number you see is log10 of EC50, and the unit inside the log is nM.

Consider the reported log10(EC50) for these compounds:
{"structure-notation": "CN1CC[C@@]2(C)c3cc(O)ccc3C[C@@H]1[C@@H]2N(CCc1ccc(F)cc1)CC(N)=O", "log10(EC50)": 0.05}
{"structure-notation": "CCN(C(=O)Nc1ccc(C#N)cc1)[C@@H]1[C@H]2Cc3ccc(O)cc3[C@]1(C)CCN2C", "log10(EC50)": 3.36}
{"structure-notation": "CN1CC[C@@]2(C)c3cc(O)ccc3C[C@@H]1[C@@H]2N(C)C(=O)Nc1nc2ccccc2[nH]1", "log10(EC50)": 0.83}
{"structure-notation": "CN1CC[C@@]2(C)c3cc(O)ccc3C[C@@H]1[C@@H]2N(C)CC1CCN(S(=O)(=O)C2CC2)CC1", "log10(EC50)": 1.96}

# context switch: different compound, same log10(EC50)
Which log10(EC50) reading was recorded for the compound CN1CC[C@@]2(C)c3cc(O)ccc3C[C@@H]1[C@H]2N(CCc1ccc(F)cc1)CC(=O)O ?
2.53
